Target: cloned human H3 receptors, stably expressed in SK-N-MC cells (Homo sapiens, UniProt Q9Y5N1)
Construct: expressed in transfected cells; host or cells: SK-N-MC cells
Sequence (Q9Y5N1 whole entry): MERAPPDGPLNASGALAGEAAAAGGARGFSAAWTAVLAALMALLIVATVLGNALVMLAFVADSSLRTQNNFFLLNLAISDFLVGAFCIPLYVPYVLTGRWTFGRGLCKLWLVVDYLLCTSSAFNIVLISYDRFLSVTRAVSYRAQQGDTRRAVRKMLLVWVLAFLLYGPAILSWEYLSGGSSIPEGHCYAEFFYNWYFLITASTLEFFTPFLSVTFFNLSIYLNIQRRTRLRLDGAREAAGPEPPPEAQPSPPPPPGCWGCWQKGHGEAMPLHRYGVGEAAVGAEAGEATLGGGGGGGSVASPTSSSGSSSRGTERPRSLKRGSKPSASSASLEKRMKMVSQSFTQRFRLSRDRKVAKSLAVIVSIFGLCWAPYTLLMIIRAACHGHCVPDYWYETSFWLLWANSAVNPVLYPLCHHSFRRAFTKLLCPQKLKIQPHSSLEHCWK
Experiment: H3 Receptor Binding (Human)
Conditions: average of the results obtained
pKi: −log10 of the molar value.
# label = true if pKi >= 8 else false

[[record]]
moleculesmiles = "CC(C)N1CCN(C(=O)c2cccc3c(CN4CCCCC4)c[nH]c23)CC1"
assignedcategory = "false"

[[record]]
moleculesmiles = "CC(C)N1CCN(C(=O)c2ccc3c(CN4CCN(C(=O)c5ccccc5)CC4)c[nH]c3c2)CC1"
assignedcategory = "true"

[[record]]
moleculesmiles = "CC(C)N1CCN(C(=O)c2ccc3c(CN4CCN(c5ccccc5)CC4)c[nH]c3c2)CC1"
assignedcategory = "true"

[[record]]
moleculesmiles = "O=C(c1ccc2c(CN3CCCN(C4CCC4)CC3)c[nH]c2c1)N1CCC(CO)CC1"
assignedcategory = "false"

[[record]]
moleculesmiles = "CC(C)N1CCN(C(=O)c2ccc3[nH]cc(CN4CCCCC4)c3c2)CC1"
assignedcategory = "false"

[[record]]
moleculesmiles = "CC(C)N1CCN(C(=O)c2ccc3c(CN4CCCOCC4)c[nH]c3c2)CC1"
assignedcategory = "true"

